STUDY_TARGET: Human PDE4D catalytic domain (Homo sapiens (Human), UniProt Q08499)
Sequence (Q08499 386-715): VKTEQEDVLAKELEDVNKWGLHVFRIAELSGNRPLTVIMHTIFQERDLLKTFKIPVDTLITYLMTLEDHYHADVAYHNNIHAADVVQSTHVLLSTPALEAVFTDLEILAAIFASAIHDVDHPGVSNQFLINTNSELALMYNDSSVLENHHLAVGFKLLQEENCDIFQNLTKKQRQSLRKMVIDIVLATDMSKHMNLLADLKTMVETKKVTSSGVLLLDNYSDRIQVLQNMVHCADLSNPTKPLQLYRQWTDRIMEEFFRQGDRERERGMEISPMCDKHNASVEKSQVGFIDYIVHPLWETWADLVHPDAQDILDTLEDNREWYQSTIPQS
PROTOCOL: Scintillation Proximity Assay (SPA), inhibition of PDE4D catalytic domain activity
Type: biochemical
TEST_PARAMETERS: Compound concentration: 1 μM; read-out: PDE4D enzyme activity inhibition rate %
PARAMETER_MEASURED: inhibition at 1 µM (%)
Number only, in %; omit the unit.

Reference set (6 entries):
INSERT INTO measurements (compound, unit_of_measure, quantitative_readout) VALUES
  ('CCOc1cc2c(cc1OC)CCN(S(=O)(=O)c1ccc(F)c(F)c1)[C@H]2CCc1c[nH]c2ccc(OC)cc12 [(S)-C51]', '%', 37.9),
  ('CCOc1cc2c(cc1OC)CCN(S(=O)(=O)c1cccc(F)c1)[C@H]2CCc1c[nH]c2ccc(OC)cc12 [(S)-C50]', '%', 49.4),
  ('COc1cc2c(cc1OC1CCCC1)C(CCc1c[nH]c3cc(C)ccc13)N(C=O)CC2 (centres unmarked) [Compound C3]', '%', 6.4),
  ('CCOc1cc2c(cc1OC)CCN(C=O)[C@H]2CCc1c[nH]c2ccc(OC(F)(F)F)cc12 [(S)-C76]', '%', 92.3),
  ('CCOc1cc2c(cc1OC)CCN(S(=O)(=O)C1CC1)[C@H]2CCc1c[nH]c2ccc(OC)cc12 [(S)-C48]', '%', 62),
  ('COc1ccc2[nH]cc(CC[C@H]3c4cc(C(=O)O)c(OC)cc4CCN3C=O)c2c1 [(S)-C68]', '%', 83.1);

Field request: inhibition at 1 µM | item: COCC(=O)N1CCc2cc(OC)c(OC)cc2[C@@H]1CCc1c[nH]c2ccccc12 [(S)-B11]
82.9

Then what about the compound COc1ccc2[nH]cc(CC[C@H]3c4cc(C(N)=O)c(OC)cc4CCN3C=O)c2c1 [(S)-C70] ?
83.8

====

PROTOCOL: Beagle dog pharmacokinetic test
Type: in vivo
TEST_PARAMETERS: male, plasma, po, gavage, 10 mg/kg
PARAMETER_MEASURED: MRT (h)
Number only, in h; omit the unit.

Field request: MRT | item: CCOc1cc2c(cc1OC)CCN(C=O)[C@H]2CCc1c[nH]c2ccc(OC)cc12 [(S)-C8]
3.61

====

Form field: inhibition at 10 µM (one value per entry).
System: TNF-α secretion in PBMC
PROTOCOL: Inhibition of LPS-stimulated TNF-α secretion in PBMC (ELISA)
Format: cell-based
TEST_PARAMETERS: Homo sapiens; TNF-α secretion in PBMC, 10 μM; read-out: Inhibition rate %
Number only, in %; omit the unit.

Reference set (3 entries):
INSERT INTO measurements (molecule, unit_of_measure, quantitative_readout) VALUES
  ('COc1cc2c(cc1OCc1ccccc1)C(CCc1c[nH]c3ccccc13)N(C=O)CC2 (stereo not shown) [Compound A5]', '%', 23.8),
  ('COCC(=O)N1CCc2cc(OC)c(OC)cc2C1CCc1c[nH]c2ccccc12 (stereo not shown) [Compound B4]', '%', 89.1),
  ('COc1cc2c(cc1OC)[C@H](CCc1c[nH]c3ccccc13)N(C(=O)C(F)(F)F)CC2 [(S)-B10]', '%', 59.6);

With those in mind, consider the next molecule.
Field request: inhibition at 10 µM | item: COc1cc2c(cc1OC1CCCC1)C(CCc1c[nH]c3cc(C)ccc13)N(C=O)CC2 (stereo not shown) [Compound C3]
36.4

====

Form field: Cell survival rate/% (one value per entry).
Test system: RAW 264.7 cells
PROTOCOL: Cytotoxicity on RAW 264.7 cells (CCK-8 method)
Type: cell-based, mouse
TEST_PARAMETERS: RAW 264.7, 0.5 μM

Reference set (3 entries):
INSERT INTO assay_data (molecule, study_target, parameter_measured, result) VALUES
  ('COc1cc2c(cc1OC)[C@H](CCc1c[nH]c3ccccc13)N(C(=O)C(F)(F)F)CC2 [(S)-B10]', 'RAW 264.7 cells', 'Cell survival rate/%', '89.2%'),
  ('COc1cc2c(cc1OCC1CC1)[C@H](CCc1c[nH]c3ccccc13)N(C=O)CC2 [(S)-A3]', 'RAW 264.7 cells', 'Cell survival rate/%', '110.9%'),
  ('COc1cc2c(cc1OC)C(CCc1c[nH]c3ccccc13)N(CC1CCOCC1)CC2 (centres unmarked) [Compound B7]', 'RAW 264.7 cells', 'Cell survival rate/%', '98.1%');

Field request: Cell survival rate/% | item: CCOc1cc2c(cc1OC)CCN(C=O)[C@H]2CCc1c[nH]c2ccccc12 [(S)-A4]
103%

Then what about the molecule COCCN1CCc2cc(OC)c(OC)cc2C1CCc1c[nH]c2ccccc12 (centres unmarked) [Compound B2] ?
88.3%

====

Tested on: TNF-α secretion in PBMC
PROTOCOL: Inhibition of LPS-stimulated TNF-α secretion in PBMC (ELISA)
Type: cell-based
TEST_PARAMETERS: Homo sapiens; TNF-α secretion in PBMC, 10 μM; read-out: Inhibition rate %
PARAMETER_MEASURED: inhibition at 10 µM (%)
Number only, in %; omit the unit.

Field request: inhibition at 10 µM | item: COc1cc2c(cc1OC1CCCC1)C(CCc1c[nH]c3ccc(C)cc13)N(C=O)CC2 (centres unmarked)
52.4

Then what about the compound COc1cc2c(cc1OC)C(CCc1c[nH]c3ccccc13)N(CCS(C)(=O)=O)CC2 (centres unmarked) ?
77.8

Then what about the compound COc1cc2c(cc1OC)C(CCc1c[nH]c3ccccc13)N(CC1CCOCC1)CC2 (centres unmarked) ?
36.6

Then what about the compound COc1cc2c(cc1OC1CCCC1)C(CCc1c[nH]c3ccccc13)N(C=O)CC2 (centres unmarked) ?
43

Then what about the compound CCOc1cc2c(cc1OC)CCN(C=O)[C@H]2CCc1c[nH]c2ccc(OC)cc12 [(S)-C8] ?
86.8

====

STUDY_TARGET: Human PDE4D catalytic domain (Homo sapiens (Human), UniProt Q08499)
PROTOCOL: Scintillation Proximity Assay (SPA), inhibition of PDE4D catalytic domain activity
Format: biochemical
TEST_PARAMETERS: Compound concentration: 1 μM; read-out: PDE4D enzyme activity inhibition rate %
PARAMETER_MEASURED: inhibition at 1 µM (%)
Number only, in %; omit the unit.

Reference set (2 entries):
INSERT INTO measurements (compound, parameter_measured, quantitative_readout) VALUES
  ('CNC(=O)c1cc2c(cc1OC)CCN(C=O)[C@H]2CCc1c[nH]c2ccc(OC)cc12 [(S)-C69]', 'inhibition at 1 µM', 80.5),
  ('CCOc1cc2c(cc1OC)CCN(C(=O)C(F)(F)F)[C@H]2CCc1c[nH]c2ccc(OC)cc12 [(S)-C54]', 'inhibition at 1 µM', 46);

Identify the measured inhibition at 1 µM of CCOc1cc2c(cc1OC)CCN(C(=O)COC)[C@H]2CCc1c[nH]c2ccccc12 [(S)-B12] for Human PDE4D catalytic domain (Homo sapiens (Human), UniProt Q08499).
92.2

Then what about the compound CCOc1cc2c(cc1OC)CCN(S(=O)(=O)c1cccnc1)[C@H]2CCc1c[nH]c2ccc(OC)cc12 [(S)-C55] ?
20.5

Then what about the compound CCOc1cc2c(cc1OC)CCN(S(=O)(=O)CC)[C@H]2CCc1c[nH]c2ccc(OC)cc12 [(S)-C53] ?
56.3

Then what about the compound CCOc1cc2c(cc1OC)CCN(C=O)[C@H]2CCc1c[nH]c2ccc(OC(F)F)cc12 [(S)-C77] ?
93.5

Then what about the compound CCOc1cc2c(cc1OC)CCN(S(=O)(=O)c1ccc(F)cc1)[C@H]2CCc1c[nH]c2ccc(OC)cc12 [(S)-C58] ?
49.7

====

Test system: RAW 264.7 cells
PROTOCOL: Cytotoxicity on RAW 264.7 cells (CCK-8 method)
Format: cell-based, mouse
TEST_PARAMETERS: RAW 264.7, 0.5 μM
PARAMETER_MEASURED: Cell survival rate/% (%)
Number only, in %; omit the unit.

Reference set (5 entries):
INSERT INTO measurements (compound, study_target, unit_of_measure, quantitative_readout) VALUES
  ('COc1cc2c(cc1OC)C(CCc1c[nH]c3ccccc13)N(C(=O)C1CCOCC1)CC2 (stereo not drawn)', 'RAW 264.7 cells', '%', 97.7),
  ('CCOc1cc2c(cc1OC)CCN(C=O)[C@H]2CCc1c[nH]c2cc(C)ccc12 [(S)-C7]', 'RAW 264.7 cells', '%', 71.3),
  ('COc1cc2c(cc1OC)C(CCc1c[nH]c3ccccc13)N(C(=O)c1ccncc1)CC2 (stereo not drawn)', 'RAW 264.7 cells', '%', 78),
  ('CCOc1cc2c(cc1OC)CCN(CCS(C)(=O)=O)[C@H]2Cc1c[nH]c2ccccc12 [(S)-C14]', 'RAW 264.7 cells', '%', 128.3),
  ('COc1cc2c(cc1OC1CCCC1)C(CCc1c[nH]c3cc(C)ccc13)N(C=O)CC2 (stereo not drawn)', 'RAW 264.7 cells', '%', 115.1);

With those in mind, consider the next compound.
Field request: Cell survival rate/% | item: COC(=O)CN1CCc2cc(OC)c(OC)cc2C1CCc1c[nH]c2ccccc12 (stereo not drawn)
86
